assay_remarks: Measurement of mRNA encapsulation in lipid nanoparticles (Quant-iT Ribogreen)
Format: physicochemical
run_parameters: Leptin mRNA in LNP
observation_type: % encapsulation mRNA Leptin (%)

1) CCCCC/C=C\C/C=C\CCCCCCCC(=O)OCC(COC(=O)CCC(OCCCCCCCC)OCCCCCCCC)COC(=O)OCCCN(CC)CC (stereo not drawn)    90.7
2) CCCCC/C=C\C/C=C\CCCCCCCC(=O)OCC(COC(=O)CCCCCCC/C=C\C/C=C\CCCCC)COC(=O)CCCN1CCCC1    32.5
3) CCCCC/C=C\C/C=C\CCCCCCCC(=O)OCC(COC(=O)CCC(OCCCCCCCC)OCCCCCCCC)COC(=O)[C@@H]1CCCN1C (stereo partly drawn)    14.3
4) CCCCC/C=C\C/C=C\CCCCCCCC(=O)OCC(COC(=O)CCCCC(OCCCCCCCC)OCCCCCCCC)COC(=O)OCCCN(CC)CC (stereo not drawn)    80.8
5) CCCCC/C=C\C/C=C\CCCCCCCC(=O)OCC(COC(=O)CCC(OCCCCCCCC)OCCCCCCCC)COC(=O)OCCCN1CCN(C)CC1 (stereo not drawn)    63.5
6) CCCCC/C=C\C/C=C\CCCCCCCC(=O)OCC(COC(=O)CCC(OCCCCCCCC)OCCCCCCCC)COC(=O)OC1CCN(CC)CC1 (stereo not drawn)    83.9

Measured values drawn from patent US10059655B2 for this set.
